Target: Ecm22 (UniProt Q05958)
Sequence: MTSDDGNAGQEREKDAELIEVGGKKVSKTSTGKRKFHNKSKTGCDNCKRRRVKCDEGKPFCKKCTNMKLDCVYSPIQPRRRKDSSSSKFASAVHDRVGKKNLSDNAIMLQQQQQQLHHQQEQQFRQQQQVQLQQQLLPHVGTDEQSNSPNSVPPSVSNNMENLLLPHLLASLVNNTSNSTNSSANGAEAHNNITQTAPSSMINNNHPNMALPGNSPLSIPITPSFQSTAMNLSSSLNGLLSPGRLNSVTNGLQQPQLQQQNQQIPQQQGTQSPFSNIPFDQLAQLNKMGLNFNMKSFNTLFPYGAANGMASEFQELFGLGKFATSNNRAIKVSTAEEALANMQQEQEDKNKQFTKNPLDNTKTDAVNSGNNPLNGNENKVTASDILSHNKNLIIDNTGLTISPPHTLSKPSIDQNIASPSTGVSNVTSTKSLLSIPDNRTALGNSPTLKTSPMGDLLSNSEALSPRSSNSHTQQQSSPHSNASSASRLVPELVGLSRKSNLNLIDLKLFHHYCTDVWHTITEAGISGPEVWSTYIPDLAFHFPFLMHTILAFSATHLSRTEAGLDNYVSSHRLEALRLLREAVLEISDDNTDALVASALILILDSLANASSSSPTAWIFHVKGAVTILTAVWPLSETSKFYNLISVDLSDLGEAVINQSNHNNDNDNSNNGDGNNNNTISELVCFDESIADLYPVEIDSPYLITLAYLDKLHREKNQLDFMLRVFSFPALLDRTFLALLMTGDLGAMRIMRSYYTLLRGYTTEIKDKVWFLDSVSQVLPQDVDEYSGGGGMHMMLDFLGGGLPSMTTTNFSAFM
Experiment: PBM E-score (8-mer binding enrichment) (E-score (-0.5 to 0.5)); higher = stronger / more preferred TF binding
Details: protein concentration: 200 nM; construct: GST-full length
The full ranking holds about 33,000 sequences; the median of “E-score (-0.5 to 0.5)” is about -0.041, and the highest 2% start at about 0.37. What follows is part of a selection rich in the highest values, with near analogues and random picks from the rest.
// reported PBM E-score per item
Reply with the value as a number alone.

AGACGAGG :: 0.202
GTATCGGA :: 0.199
CACGAGGA :: 0.196
GATATGCC :: -0.108
AGGTCAGA :: -0.204
ACCCTACC :: -0.0742
CAAGGTGC :: -0.235
ACCCGTCT :: -0.0476

Q. What value of PBM E-score has been reported for the following sequence? `ACCCGTAT`
A. 0.391

* * *

Biological target: Ecm22 (UniProt Q05958)
Sequence: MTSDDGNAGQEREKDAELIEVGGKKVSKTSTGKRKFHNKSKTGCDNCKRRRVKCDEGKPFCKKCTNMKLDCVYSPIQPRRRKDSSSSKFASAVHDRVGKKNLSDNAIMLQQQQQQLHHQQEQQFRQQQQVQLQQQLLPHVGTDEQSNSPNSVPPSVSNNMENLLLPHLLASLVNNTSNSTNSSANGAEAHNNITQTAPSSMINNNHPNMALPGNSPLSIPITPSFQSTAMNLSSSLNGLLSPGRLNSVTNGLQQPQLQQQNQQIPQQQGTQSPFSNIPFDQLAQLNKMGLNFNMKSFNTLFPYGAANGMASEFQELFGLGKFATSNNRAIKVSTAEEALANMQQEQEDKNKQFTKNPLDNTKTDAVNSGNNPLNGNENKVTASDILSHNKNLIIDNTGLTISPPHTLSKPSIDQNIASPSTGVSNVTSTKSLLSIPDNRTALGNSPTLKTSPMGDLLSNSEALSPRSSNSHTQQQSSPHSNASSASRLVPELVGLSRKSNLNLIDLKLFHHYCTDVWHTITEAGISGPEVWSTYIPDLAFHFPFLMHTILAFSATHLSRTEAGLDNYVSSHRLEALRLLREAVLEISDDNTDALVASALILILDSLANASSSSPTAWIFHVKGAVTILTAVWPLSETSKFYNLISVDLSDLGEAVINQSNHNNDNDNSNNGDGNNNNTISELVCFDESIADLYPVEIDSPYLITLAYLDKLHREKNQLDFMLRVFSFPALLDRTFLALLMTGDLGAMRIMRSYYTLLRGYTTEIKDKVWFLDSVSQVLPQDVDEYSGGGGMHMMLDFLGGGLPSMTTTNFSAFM
Assay: PBM E-score (8-mer binding enrichment) (E-score (-0.5 to 0.5)); higher = stronger / more preferred TF binding
Conditions: protein concentration: 200 nM; construct: GST-full length
Over roughly 33,000 sequences, “E-score (-0.5 to 0.5)” has its median near -0.041; the highest 2% begin near 0.37. The list comes from a sample in which the highest values are over-represented; it also holds close analogues and randomly drawn sequences.
// reported PBM E-score per item
Reply with the value as a number alone.

AATACGAG :: 0.457
CCGTACCC :: 0.433
AAGCGTGT :: -0.18
GCGTACCA :: 0.273

Q. What value of PBM E-score has been reported for the following sequence? `AAAGAGGT`
A. -0.244

Q. What value of PBM E-score has been reported for the following sequence? `TAAACGAA`
A. 0.488

Q. What value of PBM E-score has been reported for the following sequence? `CGGCGAAA`
A. 0.0597

Q. What value of PBM E-score has been reported for the following sequence? `CAAGTGCG`
A. -0.0245

Q. What value of PBM E-score has been reported for the following sequence? `ATGGTTCA`
A. 0.0295

The reported measurements were obtained from the supplement of paper PMC3334620.
